molecular target: furin, P09958; assay: furin cleavage Z-score vs untreated control; higher = more cleavage, active = 3.5 or more, inactive = 1 or less, 8 variable residues between constant flanks; conditions: 30 min;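 further: purified furin at 1:10 enzyme:substrate in 50 mM HEPES pH 7.5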
Sequence (P09958 whole entry): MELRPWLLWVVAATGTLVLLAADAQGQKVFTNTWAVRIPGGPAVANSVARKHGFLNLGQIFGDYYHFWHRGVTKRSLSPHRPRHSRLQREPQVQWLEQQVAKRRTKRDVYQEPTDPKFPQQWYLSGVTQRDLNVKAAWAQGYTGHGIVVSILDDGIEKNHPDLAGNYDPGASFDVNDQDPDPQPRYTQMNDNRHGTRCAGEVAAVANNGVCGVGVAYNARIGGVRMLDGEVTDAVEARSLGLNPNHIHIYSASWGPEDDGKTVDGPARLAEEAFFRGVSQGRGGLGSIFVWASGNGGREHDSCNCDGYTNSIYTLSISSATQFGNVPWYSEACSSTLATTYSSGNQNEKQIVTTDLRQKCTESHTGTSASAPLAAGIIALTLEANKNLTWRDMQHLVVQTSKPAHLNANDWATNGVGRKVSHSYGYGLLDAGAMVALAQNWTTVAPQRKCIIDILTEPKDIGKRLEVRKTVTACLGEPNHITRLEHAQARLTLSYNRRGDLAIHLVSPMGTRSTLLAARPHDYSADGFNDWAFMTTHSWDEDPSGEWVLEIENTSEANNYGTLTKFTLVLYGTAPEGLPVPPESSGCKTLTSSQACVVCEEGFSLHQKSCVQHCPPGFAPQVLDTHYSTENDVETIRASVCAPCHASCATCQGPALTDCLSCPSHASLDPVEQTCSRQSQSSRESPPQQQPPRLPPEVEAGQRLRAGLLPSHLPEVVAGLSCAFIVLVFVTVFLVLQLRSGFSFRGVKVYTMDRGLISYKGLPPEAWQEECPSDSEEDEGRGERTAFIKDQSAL
The other results are listed elsewhere or left out. The true hit rate is not given.
Outcome field: choose from 1 = active, 0 = inactive

Known results for sequences:
CALEKRQKRDAGNASASA [FS-1639]; 1
CALVGAPLGGAGNASASA [HC230]; 0
CAEVVESTWVAGNASASA [HC133]; 0

Could you please tell me the result logged for CATTPCSGSIAGNASASA [HC1924] in this assay?
0

How did this test come out for CAGLRDLAVAAGNASASA [HC642] ?
0

Look up the recorded call for CAKMIGGHYVAGNASASA [HC624] in this test.
0

Any idea what this test logged for CAGLGKVLIDAGNASASA [HC1082] ?
0

Which result was noted for this sequence in the test: CAQTFLATCIAGNASASA [HC694]
0

Hi, sorry to bother you, what did the test record for CAGLRRQKRDAGNASASA [FS-1000] ?
1

Hi, do you know how CANPARDDRSAGNASASA [FS-946] came out in this test?
0

# fetch the recorded call for CAEMPCHRPSAGNASASA [HC2326] here
0

Hi team, can someone confirm the assay call for CADQEVVTSTAGNASASA [HC2302] ?
0

Test call for this sequence, please: CAEEVVCCSMAGNASASA [HC2132]
0

For CAGNPAIASLAGNASASA [HC1052] , which call appears in the assay record?
0

Answer briefly: the call reported for CATCPCSGSWAGNASASA [HC1860] in this assay.
0
